normalized growth: recorded values
Experiment: chemical genetic growth profiling, strain panel (AID 1159580);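 further: tested at 20 µM; growth read once vehicle control cultures reached saturation at 30 °C; 1 = growth at the plate median or of vehicle wells; lower values mean less growth of the strain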
Conditions: S. cerevisiae deletion strains, growth OD, locus YHR129C, strain ARP1, active compounds read low
Hit rate of the full screen: of about 5,500 compounds, about 2,000 (36%) were called active. Roughly 18% stayed inconclusive and do not appear here. The list shows a part of the results.

>  <molecule>
CC(=O)O[C@@H]1CC2C(C)(C)[C@H](O)CC[C@]2(C)C2CC[C@@]3(C)[C@H](c4ccoc4)OC(=O)[C@H]4O[C@]43[C@@]21C (stereo partly drawn)

>  <normalized growth>
1

$$$$
>  <molecule>
CC1(C)C(=O)[C@@H]2O[C@@H]2[C@@]2(C)C1C[C@@H](O)[C@]1(C)C2CC[C@@]2(C)[C@H](c3ccoc3)OC(=O)C3OC321 (stereo partly drawn)

>  <normalized growth>
1

$$$$
>  <molecule>
CC(=O)O[C@@H]1CC2C(C)(C)[C@H](O)CC[C@]2(C)C2CC[C@@]3(C)[C@H](c4ccoc4)OC(=O)C4OC43[C@@]21C (stereo partly drawn)

>  <normalized growth>
1.01

$$$$

---

Assay: chemical genetic growth profiling, strain panel (AID 1159580);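 further: tested at 20 µM; growth read once vehicle control cultures reached saturation at 30 °C; 1 = growth at the plate median or of vehicle wells; lower values mean less growth of the strain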
Settings: S. cerevisiae deletion strains, growth OD, locus YDR195W, strain ref2
About 2,000 (36%) of roughly 5,500 compounds were called active. Another 18% or so got no clear call; they are omitted. The list shows a part of the results.

>  <compound>
CC(=O)Oc1c2c(c(CC=C(C)C)c3c1C(=O)C1=C[C@@H]4CC5C(C)(C)OC(C/C=C(\C)C(=O)O)(C4=O)[C@@]15O3)OC(C)(CCC=C(C)C)C=C2 (stereo partly specified)

>  <normalized growth>
1.11

$$$$
>  <compound>
COc1ccc(CCC(=O)c2c(O)cc(O[C@@H]3O[C@H](CO)C(O)[C@H](O)C3O[C@@H]3O[C@@H](C)[C@H](O)[C@@H](O)[C@H]3O)cc2O)cc1O (stereo partly specified)

>  <normalized growth>
0.986

$$$$
>  <compound>
N[C@@H](C(=O)O)[C@@H](O)[C@H](O)[C@H](O)CO

>  <normalized growth>
1.02

$$$$
>  <compound>
NC(C(=O)O)C(O)C(=O)O (stereo unspecified)

>  <normalized growth>
0.973

$$$$
>  <compound>
O=C(O)[C@@H](S)[C@@H](S)C(=O)O

>  <normalized growth>
1.01

$$$$
>  <compound>
NC1(C(=O)O)CCCC1

>  <normalized growth>
1.03

$$$$

---

Assay: chemical genetic growth profiling, strain panel (AID 1159580);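 further: tested at 20 µM; growth read once vehicle control cultures reached saturation at 30 °C; 1 = growth at the plate median or of vehicle wells; lower values mean less growth of the strain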
Conditions: S. cerevisiae deletion strains, growth OD, locus YAR019C, strain CDC15
The campaign covered roughly 5,500 compounds. About 2,000 (36%) were called active. Not shown: some 18% with an inconclusive outcome. No stated cut-off is given here; in the data, active means normalized growth mostly below about 0.91 (no sharp cut-off); inconclusive means no clear call, values can overlap the other calls; inactive means mostly above about 0.92. This is one part of the list.
Outcomes: y (active), n (inactive)

>  <compound>
C/C(=N/NC(=S)NCC(C)(C)C)c1cc(F)cc(Cl)c1O

>  <assigned.label>
n

$$$$
>  <compound>
COc1ccc2c(c1)CCc1sc(NC(=O)c3ccco3)nc1-2

>  <assigned.label>
n

$$$$
>  <compound>
FC(F)(F)c1cc(NC(=S)SCCSC(=S)Nc2cc(C(F)(F)F)cc(C(F)(F)F)c2)cc(C(F)(F)F)c1

>  <assigned.label>
n

$$$$
>  <compound>
Clc1ccccc1-c1csc(-c2cccnc2)n1

>  <assigned.label>
n

$$$$
>  <compound>
Nc1ccccc1C(=O)Nc1cc(C(F)(F)F)cc(C(F)(F)F)c1

>  <assigned.label>
n

$$$$
>  <compound>
Cc1ccccc1/C=C/c1c[nH]c2ccccc12

>  <assigned.label>
n

$$$$
>  <compound>
CC(C)(C)C1=C(C#N)C(c2c(Cl)cccc2Cl)C(C#N)=C(N)O1 (centres undefined)

>  <assigned.label>
n

$$$$
>  <compound>
Clc1ccccc1-c1csc(-c2ccncc2)n1

>  <assigned.label>
n

$$$$
>  <compound>
Cc1ccc(-c2nc(NS(=O)(=O)c3cccc4nonc34)sc2C)cc1Cl

>  <assigned.label>
n

$$$$
>  <compound>
CCOC(=O)c1sc(S(C)=NC(=O)Nc2ccc(Cl)cc2)c2c1CCC=C2 (centres undefined)

>  <assigned.label>
n

$$$$
>  <compound>
C[C@@H](Nc1ncnc2sc3c(c12)CCCC3)c1ccccc1

>  <assigned.label>
n

$$$$
>  <compound>
O=S(=O)(NCc1cc(Cl)cc(Cl)c1)c1cc(C(F)(F)F)cc(C(F)(F)F)c1

>  <assigned.label>
n

$$$$
>  <compound>
Cc1cccc(N=NC(C(=O)C(F)(F)F)=C(O)c2cccs2)c1

>  <assigned.label>
n

$$$$
>  <compound>
O=C(NNc1ccccc1)c1cc(-c2ccc(Cl)cc2)oc1C(F)(F)F

>  <assigned.label>
n

$$$$
>  <compound>
Cn1nccc1-c1cc(Cl)cc(Cl)c1O

>  <assigned.label>
n

$$$$
>  <compound>
Clc1ccc(Oc2ccnc3cc(Cl)ccc23)cc1

>  <assigned.label>
n

$$$$
>  <compound>
O=C(Nc1cc(C(F)(F)F)cc(C(F)(F)F)c1)C(Cl)(Cl)Cl

>  <assigned.label>
n

$$$$
>  <compound>
O=C(Nc1cc(Cl)ccc1O)c1ccccc1CSc1ccc(Cl)cc1

>  <assigned.label>
n

$$$$
>  <compound>
O=S(=O)(NCc1ccc(C(F)(F)F)cc1)c1cccc(C(F)(F)F)c1

>  <assigned.label>
n

$$$$
>  <compound>
O=S(=O)(Nc1cc(Cl)c(Cl)cc1Cl)c1cc(C(F)(F)F)cc(C(F)(F)F)c1

>  <assigned.label>
n

$$$$
>  <compound>
N#CC(C#N)=Cc1c(-c2ccccc2Cl)[nH]c2ccccc12

>  <assigned.label>
n

$$$$
>  <compound>
CNC(=O)Sc1c(-c2ccc(Cl)cc2)nn(C(=O)NC)c1SC

>  <assigned.label>
n

$$$$
>  <compound>
O=C(Oc1ccc2ccccc2c1C1SCCS1)c1ccc([N+](=O)[O-])o1

>  <assigned.label>
n

$$$$
>  <compound>
N#Cc1ccc(Oc2sccc2[N+](=O)[O-])cc1

>  <assigned.label>
n

$$$$
>  <compound>
Cc1c(S(=O)(=O)Nc2cccc([N+](=O)[O-])c2)sc2ccc(Cl)cc12

>  <assigned.label>
n

$$$$
>  <compound>
N/C(=N/O)c1ccc(Oc2ccc(C3SCCS3)cc2)c([N+](=O)[O-])c1

>  <assigned.label>
n

$$$$
>  <compound>
COc1ccc(-c2csc(-c3cccnc3)n2)cc1

>  <assigned.label>
n

$$$$
>  <compound>
Clc1cc(Cl)cc(C=NCc2ccccc2)c1

>  <assigned.label>
n

$$$$
>  <compound>
Brc1ccc(-c2csc(-c3cccnc3)n2)cc1

>  <assigned.label>
y

$$$$
